Structures can show the parent of a compound that is named as a salt.
Experimental Endpoint: melting point (°C)

Use these answered entries as a reference point.
[[record]]
compound = "COc1ccc(F)cc1-c1cc(NC(=O)C2CCC(N)CC2)ncn1 (stereo not drawn) (as salt: TFA)"
experimental_endpoint = "melting point"
quantitative_result = 162

[[record]]
compound = "COc1ccc(F)cc1-c1cc(NC(=O)Cc2cc(F)c(F)cc2F)ncn1"
experimental_endpoint = "melting point"
quantitative_result = 208

[[record]]
compound = "COc1ccc(F)cc1-c1cc(NC(=O)C2CC(=O)NC(=O)C2)ncn1"
experimental_endpoint = "melting point"
quantitative_result = 160

[[record]]
compound = "CCOc1ccc(F)cc1-c1cc(NC(=O)C2CCC(=O)NC2)ncn1 (stereo not drawn)"
experimental_endpoint = "melting point"
quantitative_result = 208

[[record]]
compound = "COc1ccc(F)cc1-c1cc(NC(=O)[C@H]2CCCC[C@H]2N)ncn1.Cl"
experimental_endpoint = "melting point"
quantitative_result = 272

[[record]]
compound = "COc1ccc(F)cc1-c1cc(NC(=O)C2CCNC(=O)C2)ncn1 (stereo not drawn)"
experimental_endpoint = "melting point"
quantitative_result = 225

[[record]]
compound = "COc1cc(F)ccc1-c1cc(NC(=O)C2CCC(=O)NC2)ncn1 (stereo not drawn)"
experimental_endpoint = "melting point"
quantitative_result = 148


1. CC(C)Oc1cc(F)ccc1-c1cc(NC(=O)C2CCC(=O)NC2)ncn1 (stereo not drawn)
2. CCCN1N=C(C(=O)Nc2cc(-c3cc(F)ccc3OC)ncn2)CCC1=O
Just tell me: smaller melting point value, 1 or 2 ? // return label of chosen record 1
(1: 105 °C, 2: 200 °C)
